Reported activity (max response) is given for each of the following compounds.
measurement-protocol: Cellular viability qHTS for adrenocortical cancer (ACC) cell line SW-13 (AID 1963989);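 further: cells grown in serum-free medium with ITS supplement; on the % scale 0 is the no-effect control and ±100 the full control effect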
conditions: SW-13 ACC cells viability, CellTiter-Glo, 48 h; stronger effect = lower value
Results filed as inconclusive are left out.
# unit: % | format: bare number

Example cases with answers are listed next.
compound | readout-units | activity (max response)
C#CCN(C)Cc1ccccc1 | % | 11.7
O=C(O)c1ccccc1S | % | 5.53
Nc1nc(N)c(-c2ccccc2)s1 | % | 6.99

# input compound: CC(=O)CC(c1ccc([N+](=O)[O-])cc1)c1c(O)c2ccccc2oc1=O (configuration not stated) ; wanted: its activity (max response)
-8

# input compound: O=C(O)COC(=O)Cc1ccccc1Nc1c(Cl)cccc1Cl ; wanted: its activity (max response)
7.51

# input compound: Cc1ccc2c(Cl)cc(Cl)c(O)c2n1 ; wanted: its activity (max response)
9.37

# input compound: CC(C)(C)CC(=O)OCC(=O)[C@@]1(O)CC[C@H]2[C@@H]3CCC4=CC(=O)C=C[C@]4(C)[C@H]3[C@@H](O)C[C@@]21C ; wanted: its activity (max response)
-10.9

# input compound: CCCCc1ncc(/C=C(\Cc2cccs2)C(=O)O)n1Cc1ccc(C(=O)O)cc1 ; wanted: its activity (max response)
6.21

# input compound: C[C@]1(C(=O)N(CCCC(=O)O)Cc2cccc(Cl)c2)CCN1C(=O)c1csc2ccccc12 ; wanted: its activity (max response)
-17.4
